Test: Serum estradiol concentration during transdermal estradiol treatment
Type: in vivo, human
Details: human, serum, other: transdermal, 0.6 mg/day; 2 months of treatment, Example 1; read-out: Estradiol, mean ± 95% CI
RECORDED_ENDPOINT: concentration at 2 months (ng/mL)
The reply should be a number in ng/mL, with the unit left off.

Input: Return reported concentration at 2 months; argument: C[C@]12CC[C@@H]3c4ccc(O)cc4CC[C@H]3[C@@H]1CC[C@@H]2O [Estradiol, estra-1,3,5(10)-triene-3,17β-diol]
Output: 0.371

---

Assay: Serum estradiol concentration during transdermal estradiol treatment
Assay type: in vivo, human
Details: human, serum, other: transdermal, 0.6 mg/day; 1 month of treatment, Example 1; read-out: Estradiol, mean ± 95% CI
RECORDED_ENDPOINT: concentration at 1 month (ng/mL)
The reply should be a number in ng/mL, with the unit left off.

Input: Return reported concentration at 1 month; argument: `C[C@]12CC[C@@H]3c4ccc(O)cc4CC[C@H]3[C@@H]1CC[C@@H]2O`
Output: 0.46
